src = patent US11771709B2

# System: ALK protein in SR (NPM-ALK) cells (Homo sapiens)
# Construct: NPM (nucleophosmin, NPM1, P06748) fusion partner; host or cells: SR (ALCL) cells; the other entry of the earlier key: NPM1 (P06748, Nucleophosmin)
# Sequence (Q9UM73 with tags, fused parts or gaps): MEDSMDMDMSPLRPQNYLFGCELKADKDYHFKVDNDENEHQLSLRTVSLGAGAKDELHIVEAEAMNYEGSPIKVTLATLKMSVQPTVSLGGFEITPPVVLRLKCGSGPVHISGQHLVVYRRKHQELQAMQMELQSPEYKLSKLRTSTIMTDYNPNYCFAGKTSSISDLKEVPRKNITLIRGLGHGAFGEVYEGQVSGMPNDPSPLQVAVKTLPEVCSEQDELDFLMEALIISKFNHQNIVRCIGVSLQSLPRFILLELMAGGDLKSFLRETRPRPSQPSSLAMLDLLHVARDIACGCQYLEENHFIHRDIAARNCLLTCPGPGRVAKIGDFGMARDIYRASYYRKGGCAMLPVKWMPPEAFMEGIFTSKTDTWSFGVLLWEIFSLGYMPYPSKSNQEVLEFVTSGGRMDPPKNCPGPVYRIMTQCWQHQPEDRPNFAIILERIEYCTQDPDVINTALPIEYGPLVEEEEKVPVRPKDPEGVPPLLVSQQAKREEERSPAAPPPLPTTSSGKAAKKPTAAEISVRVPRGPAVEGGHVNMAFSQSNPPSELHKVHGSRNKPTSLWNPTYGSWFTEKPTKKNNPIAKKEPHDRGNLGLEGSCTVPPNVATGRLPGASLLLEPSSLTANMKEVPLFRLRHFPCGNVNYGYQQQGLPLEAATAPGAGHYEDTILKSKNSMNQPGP
# Test method notes: Western blot of ALK protein level (degradation, DC50), ALK phosphorylation and downstream signaling in SR cells
# Type: cell-based
# Applied conditions: ALK protein degradation in SR cells
Here the recorded DC50 is given for each entry.

[
  {
    "Molecule": "COc1cc(N2CCC(NC(=O)CCC(=O)N[C@H](C(=O)N3C[C@H](O)C[C@H]3C(=O)NCc3ccc(-c4scnc4C)cc3)C(C)(C)C)CC2)ccc1Nc1ncc(Cl)c(Nc2ccccc2P(C)(C)=O)n1 [SIAIS164143]",
    "Observed result": "1 to 10 nM"
  },
  {
    "Molecule": "COc1cc(N2CCC(NC(=O)CCCC(=O)N[C@H](C(=O)N3C[C@H](O)C[C@H]3C(=O)NCc3ccc(-c4scnc4C)cc3)C(C)(C)C)CC2)ccc1Nc1ncc(Cl)c(Nc2ccccc2P(C)(C)=O)n1 [SIAIS164144]",
    "Observed result": "1 to 10 nM"
  },
  {
    "Molecule": "COc1cc(N2CCN(C(=O)CCCCCCC(=O)N[C@H](C(=O)N3C[C@H](O)C[C@H]3C(=O)NCc3ccc(-c4scnc4C)cc3)C(C)(C)C)CC2)ccc1Nc1ncc(Cl)c(Nc2ccccc2P(C)(C)=O)n1 [SIAIS1197153]",
    "Observed result": "1 to 50 nM"
  }
]

Turning now to a further molecule:
Quick one: DC50 of COc1cc(N2CCC(NC(=O)CCCCCC(=O)N[C@H](C(=O)N3C[C@H](O)C[C@H]3C(=O)NCc3ccc(-c4scnc4C)cc3)C(C)(C)C)CC2)ccc1Nc1ncc(Cl)c(Nc2ccccc2P(C)(C)=O)n1 [SIAIS164146] ?
1 to 10 nM

---

# Tested on: NCI-H2228 (EML4-ALK, V3) cells
# Test method notes: Growth inhibition IC50 in lung adenocarcinoma H2228 cells (WST)
# Assay type: cell-based
# Applied conditions: Homo sapiens, WST (Table 3)
Reported endpoint: pIC50
# pIC50 is unitless: minus log10 of the molar concentration; print number only

Below, 3 compounds whose answers are already recorded.
[
  {
    "Compound": "COc1cc(N2CCC(NC(=O)CCCCCCCCCC(=O)N[C@H](C(=O)N3C[C@H](O)C[C@H]3C(=O)NCc3ccc(-c4scnc4C)cc3)C(C)(C)C)CC2)ccc1Nc1ncc(Cl)c(Nc2ccccc2P(C)(C)=O)n1",
    "Observed result": 7.52
  },
  {
    "Compound": "COc1cc(N2CCC(N3CCN(C(=O)CCOCCOCCNc4cccc5c4C(=O)N(C4CCC(=O)NC4=O)C5=O)CC3)CC2)ccc1Nc1ncc(Cl)c(Nc2ccccc2P(C)(C)=O)n1 (stereo not drawn)",
    "Observed result": 7.13
  },
  {
    "Compound": "COc1cc(N2CCC(N3CCN(C(=O)CCCCCCNc4cccc5c4C(=O)N(C4CCC(=O)NC4=O)C5=O)CC3)CC2)ccc1Nc1ncc(Cl)c(Nc2ccccc2P(C)(C)=O)n1 (stereo not drawn)",
    "Observed result": 7.81
  }
]

Form entry - test system: NCI-H2228 (EML4-ALK, V3) cells; read-out: pIC50; compound: COc1cc(N2CCC(NC(=O)CCCNc3cccc4c3C(=O)N(C3CCC(=O)NC3=O)C4=O)CC2)ccc1Nc1ncc(Cl)c(Nc2ccccc2P(C)(C)=O)n1 (stereo not drawn)
6.46

Another compound to look at: COc1cc(N2CCC(N3CCN(C(=O)CNc4cccc5c4C(=O)N(C4CCC(=O)NC4=O)C5=O)CC3)CC2)ccc1Nc1ncc(Cl)c(Nc2ccccc2P(C)(C)=O)n1 (stereo not drawn)
7.75

Another compound to look at: COc1cc(N2CCC(N3CCN(C)CC3)CC2)ccc1Nc1ncc(Cl)c(Nc2ccccc2P(C)(C)=O)n1 [Brigatinib, reference compound]
7.34

---

# System: ALK protein in H3122 (EML4-ALK) cells (Homo sapiens)
# Construct: EML4 (Echinoderm microtubule-associated protein-like 4, Q9HC35) fusion partner, variant 1; host or cells: NCI-H3122 lung adenocarcinoma cells; the other entry of the earlier key: EML4 (Q9HC35, Echinoderm microtubule-associated protein-like 4)
# Sequence (Q9UM73 with tags, fused parts or gaps): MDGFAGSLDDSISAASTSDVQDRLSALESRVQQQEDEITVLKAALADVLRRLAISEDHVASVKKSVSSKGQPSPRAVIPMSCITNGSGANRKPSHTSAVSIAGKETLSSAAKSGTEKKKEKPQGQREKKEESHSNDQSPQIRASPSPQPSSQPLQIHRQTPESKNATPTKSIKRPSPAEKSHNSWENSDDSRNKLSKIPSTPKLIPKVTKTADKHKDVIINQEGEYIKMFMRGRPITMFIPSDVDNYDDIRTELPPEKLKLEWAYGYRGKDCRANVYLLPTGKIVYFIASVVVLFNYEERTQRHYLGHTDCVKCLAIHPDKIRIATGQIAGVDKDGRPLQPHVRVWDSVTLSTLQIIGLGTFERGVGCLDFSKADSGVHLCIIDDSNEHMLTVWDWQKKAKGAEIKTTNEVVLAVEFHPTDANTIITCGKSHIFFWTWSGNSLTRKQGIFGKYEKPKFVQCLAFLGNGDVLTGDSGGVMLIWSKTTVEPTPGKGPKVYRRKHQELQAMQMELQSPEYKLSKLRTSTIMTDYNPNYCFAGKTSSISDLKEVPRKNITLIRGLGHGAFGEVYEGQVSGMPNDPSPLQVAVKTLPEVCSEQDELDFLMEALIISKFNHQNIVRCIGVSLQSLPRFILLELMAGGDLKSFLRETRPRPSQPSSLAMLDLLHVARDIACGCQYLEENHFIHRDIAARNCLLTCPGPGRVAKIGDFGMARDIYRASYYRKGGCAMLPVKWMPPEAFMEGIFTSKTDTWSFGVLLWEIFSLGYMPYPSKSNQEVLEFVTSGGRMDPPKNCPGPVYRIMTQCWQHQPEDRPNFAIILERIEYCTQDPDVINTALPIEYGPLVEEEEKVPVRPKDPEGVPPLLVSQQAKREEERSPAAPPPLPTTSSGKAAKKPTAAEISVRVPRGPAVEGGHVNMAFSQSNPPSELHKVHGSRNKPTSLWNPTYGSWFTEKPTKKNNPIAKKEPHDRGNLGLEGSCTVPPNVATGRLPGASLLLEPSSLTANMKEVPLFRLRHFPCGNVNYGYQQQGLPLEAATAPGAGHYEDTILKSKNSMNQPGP
# Test method notes: Western blot of ALK protein level (degradation, DC50), ALK phosphorylation and downstream signaling in H3122 cells
# Format: cell-based
# Applied conditions: ALK protein degradation in H3122 cells
Here the recorded DC50 is given for each entry.

Below, 2 compounds whose answers are already recorded.
[
  {
    "Compound": "COc1cc(N2CCC(NC(=O)CCCNc3cccc4c3C(=O)N(C3CCC(=O)NC3=O)C4=O)CC2)ccc1Nc1ncc(Cl)c(Nc2ccccc2P(C)(C)=O)n1 (centres unmarked)",
    "Observed result": "1 to 50 nM"
  },
  {
    "Compound": "COc1cc(N2CCC(N3CCN(C(=O)CCOCCOCCOCCC(=O)N[C@H](C(=O)N4C[C@H](O)C[C@H]4C(=O)NCc4ccc(-c5scnc5C)cc4)C(C)(C)C)CC3)CC2)ccc1Nc1ncc(Cl)c(Nc2ccccc2P(C)(C)=O)n1",
    "Observed result": "100 to 500 nM"
  }
]

Form entry - test system: ALK protein in H3122 (EML4-ALK) cells (Homo sapiens); read-out: DC50; compound: COc1cc(N2CCC(NC(=O)CCCCNc3cccc4c3C(=O)N(C3CCC(=O)NC3=O)C4=O)CC2)ccc1Nc1ncc(Cl)c(Nc2ccccc2P(C)(C)=O)n1 (centres unmarked)
100 to 500 nM

Another compound to look at: CCc1cc2c(cc1N1CCN(C(=O)CNc3cccc4c3C(=O)N(C3CCC(=O)NC3=O)C4=O)CC1)C(C)(C)c1[nH]c3cc(C#N)ccc3c1C2=O (centres unmarked)
1 to 10 nM

Another compound to look at: COc1cc(N2CCC(NC(=O)CCOCCNc3cccc4c3C(=O)N(C3CCC(=O)NC3=O)C4=O)CC2)ccc1Nc1ncc(Cl)c(Nc2ccccc2P(C)(C)=O)n1 (centres unmarked)
100 to 500 nM

---

# Test system: U118MG cells (FIG-ROS1 gene fusion)
# Test method notes: Growth inhibition IC50 in ROS1 mutant glioblastoma cell line U118MG (72 hours)
# Type: cell-based
# Applied conditions: Homo sapiens, U-118-MG; U118MG cells, 72 hours, n = 2, reagent CTG; read-out: Half Inhibitory Concentration (IC50) Mean
Here the recorded IC50 is given for each entry.

[
  {
    "Compound": "COc1cc(N2CCC(N3CCN(C(=O)CNc4cccc5c4C(=O)N(C4CCC(=O)NC4=O)C5=O)CC3)CC2)ccc1Nc1ncc(Cl)c(Nc2ccccc2P(C)(C)=O)n1 (centres unmarked)",
    "IC50": "16.9 µM"
  },
  {
    "Compound": "COc1cc(N2CCC(N3CCN(C(=O)CCOCCOCCNc4cccc5c4C(=O)N(C4CCC(=O)NC4=O)C5=O)CC3)CC2)ccc1Nc1ncc(Cl)c(Nc2ccccc2P(C)(C)=O)n1 (centres unmarked)",
    "IC50": "3.52 µM"
  },
  {
    "Compound": "COc1cc(N2CCC(N3CCN(C(=O)CNc4cccc5c4CN(C4CCC(=O)NC4=O)C5=O)CC3)CC2)ccc1Nc1ncc(Cl)c(Nc2ccccc2P(C)(C)=O)n1 (centres unmarked)",
    "IC50": "> 20 µM"
  }
]

Quick one: IC50 of COc1cc(N2CCC(NC(=O)CCCCCCCCCC(=O)N[C@H](C(=O)N3C[C@H](O)C[C@H]3C(=O)NCc3ccc(-c4scnc4C)cc3)C(C)(C)C)CC2)ccc1Nc1ncc(Cl)c(Nc2ccccc2P(C)(C)=O)n1 ?
0.92 µM

Another compound to look at: COc1cc(N2CCC(NC(=O)CCCNc3cccc4c3C(=O)N(C3CCC(=O)NC3=O)C4=O)CC2)ccc1Nc1ncc(Cl)c(Nc2ccccc2P(C)(C)=O)n1 (centres unmarked)
4.26 µM

---

Here the recorded concentration at which ALK proteins were degraded is given for each entry.
# System: ALK protein in SR (NPM-ALK) cells (Homo sapiens)
# Construct: NPM (nucleophosmin, NPM1, P06748) fusion partner; host or cells: SR (ALCL) cells; the other entry of the earlier key: NPM1 (P06748, Nucleophosmin)
# Test method notes: Western blot of ALK protein level (degradation, DC50), ALK phosphorylation and downstream signaling in SR cells
# Type: cell-based
# Applied conditions: SR cells, western blot
Provide the reading as a plain figure in nM.

[
  {
    "Compound": "COc1cc(N2CCC(N3CCN(C(=O)CCCCNc4cccc5c4C(=O)N(C4CCC(=O)NC4=O)C5=O)CC3)CC2)ccc1Nc1ncc(Cl)c(Nc2ccccc2P(C)(C)=O)n1 (stereo not shown)",
    "Observed result": 1
  }
]

Form entry - test system: ALK protein in SR (NPM-ALK) cells (Homo sapiens); read-out: concentration at which ALK proteins were degraded; compound: COc1cc(N2CCC(N3CCN(C(=O)CCCc4cn(CCCC(=O)N[C@H](C(=O)N5C[C@H](O)C[C@H]5C(=O)NCc5ccc(-c6scnc6C)cc5)C(C)(C)C)nn4)CC3)CC2)ccc1Nc1ncc(Cl)c(Nc2ccccc2P(C)(C)=O)n1
1

Another compound to look at: COc1cc(N2CCC(N3CCN(C(=O)CCOCCOCCOCCNc4cccc5c4C(=O)N(C4CCC(=O)NC4=O)C5=O)CC3)CC2)ccc1Nc1ncc(Cl)c(Nc2ccccc2P(C)(C)=O)n1 (stereo not shown)
1
